tested on: CTL2-GFP (C. trachomatis L2/434/Bu, GFP-expressing); construct: L2/434/Bu, GFP-expressing; assay: microbe, parasite or virus in culture; design: Intracellular C. trachomatis growth in HeLa cells, bulk GFP fluorescence relative to DMSO; conditions: Chlamydia trachomatis, HeLa, 28.5 h; bulk GFP, mean of 2; read-out: % of control remaining
Reported activity at 5 µM values follow for various compounds
MEASUREMENT_TYPE: activity at 5 µM (%)

> print(dat)
                                    compound                           subject.of.test  measurement.type  uom  recorded.number
 1  O=C(Nc1nccs1)c1cc(C2CCN(C(=O)CC3CCCCC3)C2)nc2ccccc12 (centres unmarked)  CTL2-GFP (C. trachomatis L2/434/Bu, GFP-expressing)  activity at 5 µM    %              122
 2  Nc1ccc(C(=O)Nc2ccc(-c3nc4ccc(NC(=O)c5ccc(N)cc5)cc4[nH]3)cc2)cc1  CTL2-GFP (C. trachomatis L2/434/Bu, GFP-expressing)  activity at 5 µM    %              133
 3  COC(=O)CCc1ccc(-c2cnc(N)c(-c3ccc(O)cc3)n2)cc1  CTL2-GFP (C. trachomatis L2/434/Bu, GFP-expressing)  activity at 5 µM    %              108
 4    Cc1ccc2nsnc2c1S(=O)(=O)Nc1cccc2cccnc12  CTL2-GFP (C. trachomatis L2/434/Bu, GFP-expressing)  activity at 5 µM    %             79.7
 5  CC(=O)NC[C@H]1CN(c2ccc(C#N)c(C)c2)C(=O)O1  CTL2-GFP (C. trachomatis L2/434/Bu, GFP-expressing)  activity at 5 µM    %               98
 6  Cc1c(OCc2cnn(-c3ccccc3)c2)ccc(-c2n[nH]c(C(F)(F)F)c2-c2ccccc2)c1O  CTL2-GFP (C. trachomatis L2/434/Bu, GFP-expressing)  activity at 5 µM    %             73.9
 7  CC(C)c1ccc(S(=O)(=O)Nc2cccc(SC(F)(F)F)c2)cc1  CTL2-GFP (C. trachomatis L2/434/Bu, GFP-expressing)  activity at 5 µM    %               76
 8  O=C(NCCc1c[nH]c2ccc(Cl)cc12)c1ccc(Cl)cc1Br  CTL2-GFP (C. trachomatis L2/434/Bu, GFP-expressing)  activity at 5 µM    %             71.3
 9  O=S(=O)(Nc1ncccn1)c1ccc(NC(=S)Nc2ccc3c(c2)OCO3)cc1  CTL2-GFP (C. trachomatis L2/434/Bu, GFP-expressing)  activity at 5 µM    %             10.7
10  Cc1ccc(S(=O)(=O)Nc2ccc(S(=O)(=O)Nc3nccs3)cc2)c([N+](=O)[O-])c1  CTL2-GFP (C. trachomatis L2/434/Bu, GFP-expressing)  activity at 5 µM    %             7.21
11  O=C(c1ccc(-c2ccc(F)cc2)o1)N1C[C@H]2CC[C@](O)(c3ccc(F)cc3)[C@H]2C1  CTL2-GFP (C. trachomatis L2/434/Bu, GFP-expressing)  activity at 5 µM    %             7.93
12   CCc1cc(-c2n[nH]cc2-c2nc(C)cs2)c(O)cc1OC  CTL2-GFP (C. trachomatis L2/434/Bu, GFP-expressing)  activity at 5 µM    %             62.2
13  CCc1nnc(NS(=O)(=O)c2ccc(NC(=S)Nc3ccc(F)cc3)cc2)s1  CTL2-GFP (C. trachomatis L2/434/Bu, GFP-expressing)  activity at 5 µM    %             22.8
14  CC(=O)NC[C@H]1CN(c2ccc(-c3nnc(C(C)O)s3)c(F)c2)C(=O)O1 (some centres unmarked)  CTL2-GFP (C. trachomatis L2/434/Bu, GFP-expressing)  activity at 5 µM    %             2.06
15        OCC1(CNc2ncc(F)c(N3CCCC3)n2)CCOCC1  CTL2-GFP (C. trachomatis L2/434/Bu, GFP-expressing)  activity at 5 µM    %             64.2
16  COc1ccc2[nH]cc(CCNC(=O)c3ccc([N+](=O)[O-])c(C)c3)c2c1  CTL2-GFP (C. trachomatis L2/434/Bu, GFP-expressing)  activity at 5 µM    %              100
17  N#CCCCN1CCC(Oc2cncc(OCc3ccc(Cl)c(Cl)c3)n2)C1 (centres unmarked)  CTL2-GFP (C. trachomatis L2/434/Bu, GFP-expressing)  activity at 5 µM    %             81.2
